biological target: MAPK14 (UniProt Q16539)
Sequence (Q16539 whole entry, looked up): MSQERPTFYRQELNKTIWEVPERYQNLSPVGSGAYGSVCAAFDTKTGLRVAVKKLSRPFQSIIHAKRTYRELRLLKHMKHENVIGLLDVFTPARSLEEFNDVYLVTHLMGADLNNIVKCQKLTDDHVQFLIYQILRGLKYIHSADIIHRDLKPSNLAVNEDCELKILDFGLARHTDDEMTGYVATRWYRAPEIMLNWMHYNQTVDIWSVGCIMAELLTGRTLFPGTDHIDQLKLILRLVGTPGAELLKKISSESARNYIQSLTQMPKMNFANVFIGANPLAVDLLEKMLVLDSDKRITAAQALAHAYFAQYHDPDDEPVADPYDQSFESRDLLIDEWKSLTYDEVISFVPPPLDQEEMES
API: label(entry) gives criterion met if the entry's IC50 is strictly smaller than 100 nM; on equality or larger values it gives criterion not met.

COMPOUND | ANSWER LABEL
O=C(O)CCc1ccc(-n2nc(-c3cccs3)cc2NC(=O)Nc2cccc(Cl)c2Cl)cc1 | criterion met
CC(O)c1cc(-n2nc(C(C)(C)C)cc2NC(=O)Nc2cccc(Cl)c2Cl)cc2ccccc12 (stereo unspecified) | criterion not met
CC(C)(C)c1cc(NC(=O)Nc2cccc(Cl)c2Cl)n(-c2cccc(CC(=O)O)c2)n1 | criterion met
CC(C)(C)c1cc(NC(=O)Nc2cccc(Cl)c2Cl)n(-c2ccc(CCC(=O)O)cc2)n1 | criterion met
COc1cccc(-n2nc(C(C)(C)C)cc2NC(=O)Nc2cccc(Br)c2)c1 | criterion not met

Now consider the entry below.
I'd appreciate it if you could check whether CC(C)(C)c1cc(NC(=O)Nc2cccc(Cl)c2)n(-c2cccc(CN)c2)n1 has IC50 smaller than 100 nM.
criterion not met
